Every entry's value here was drawn from PubChem BioAssay (NCI).

Let's look at some compounds and their measured growth inhibition.
- ASSAY SUMMARY: NCI Yeast Anticancer Drug Screen. Data for the mec2-1 strain (AID 157)
- MEASUREMENT CONDITIONS: S. cerevisiae mec2-1 strain, at 50.0 µM, stronger effect = higher value
- Experimental: Growth inhibition of yeast strains with defined genetic alterations is measured as a screen for potential anti-cancer activity. Selected strains with alterations in DNA damage repair or cell cycle control were exposed to compounds and growth inhibition was measured relative to vehicle treated controls. The strain used in this assay is mec2-1
This is part of a sample that, as a whole, favours compounds with a hit. Of some 79,000 tested, about 15% had one in any assay.
Respond with the bare value in %.

- O=C1OC(c2ccccc2)=N/C1=C\c1ccc(F)cc1: -17.5
- CCOC(=O)/C(Cc1cnc2ccccc2n1)=N\O: -4.4
- CC(=O)Nc1ccc(/C=N/NC(N)=O)cc1: 11.6
- O=C(O)C1CSC(c2cccs2)N1 (stereo not drawn): -46.5

// lookup growth inhibition for `COC(=O)C1=CN(c2ccccc2)C(=O)C1` -14.3

Give its growth inhibition value. Item: `CN1CCC(C(=O)NNc2ccccc2)CC1` -13.2

Need growth inhibition, item CCOC(=O)C1C2CC3C(CC21C)C3(C)C (stereo not drawn) -6.65

Need growth inhibition of OC1CC2CCC(C1)N2c1ccccc1 (stereo not drawn) , thanks. 4.95

Please look up its growth inhibition: CC(C)CC(CCl)Cc1nc2ccccc2[nH]1 (stereo not drawn) 4.05

Fill blank: measured growth inhibition of the compound `O=C1CCC(=O)N1c1ccc([I+]c2ccc(N3C(=O)CCC3=O)cc2)cc1` is ____. 6.65

// returns reported growth inhibition for input `CCCCOC(=O)NCNC(=O)OCCCC` -7.1

Recorded growth inhibition for `CCOC(=O)C(=O)Nc1ccccc1` , please? -1.4

// query growth inhibition value for entry `O=[N+]([O-])c1ccc(OCCO)c([N+](=O)[O-])c1` -5.85
